B1: Subtilisin-chymotrypsin inhibitor-2A, P01053 (parent)
chain: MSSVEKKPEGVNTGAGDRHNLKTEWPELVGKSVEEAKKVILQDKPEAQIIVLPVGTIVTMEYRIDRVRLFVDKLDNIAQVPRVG

variants of: B1; details: Hordeum vulgare; pH 6.3; 46.6 °C; Thermal; Fluorescence; phosphate 10 mM; reversible: yes; structure 2CI2; whole UniProt chain shown
So basically: ddG of mutation (higher = less stable) at 0.9 kcal/mol or higher? That is 1.0. Lower than 0.9 kcal/mol? That is 0.0.

- variant-id: "S32A E34A E35A"
  category-label: 1.0
- variant-id: "E34N"
  category-label: 0.0
- variant-id: "I50A"
  category-label: 1.0
- variant-id: "V54T"
  category-label: 1.0
- variant-id: "I49V"
  category-label: 1.0

Ask: Quick check: does K37A have ddG of mutation (higher = less stable) greater than or equal to 0.9 kcal/mol?
Result: 0.0

Ask: Quick check: does V39A have ddG of mutation (higher = less stable) greater than or equal to 0.9 kcal/mol?
Result: 0.0

Ask: Quick check: does L52V have ddG of mutation (higher = less stable) greater than or equal to 0.9 kcal/mol?
Result: 0.0

Ask: Quick check: does L28A have ddG of mutation (higher = less stable) greater than or equal to 0.9 kcal/mol?
Result: 1.0

Ask: Quick check: does V54A have ddG of mutation (higher = less stable) greater than or equal to 0.9 kcal/mol?
Result: 0.0

Ask: Quick check: does K38A have ddG of mutation (higher = less stable) greater than or equal to 0.9 kcal/mol?
Result: 0.0
